EXPERIMENTAL_SYSTEM: oestrogen receptor-alpha (ERα) (Homo sapiens)
PROTOCOL_DESCRIPTION: Luciferase oestrogen receptor-alpha transcriptional assay in T47D-KBluc cells
Format: cell-based
Design: endogenous in cells; host or cells: T47D-KBluc
SETUP_CONDITIONS: read-out: IC50, luciferase assay at varied E2; T47D-KBluc, E2 1 nM

# COMPOUND, EXPERIMENTAL_SYSTEM, IC50
records = [
    ("CCOc1cc(Br)cc(/C=N/NC(=O)c2ccc3c(c2)OCCO3)c1O [VPC-16230]", "oestrogen receptor-alpha (ERα) (Homo sapiens)", "6.1 µM"),
]

###

Tested on: MCF7 cells
PROTOCOL_DESCRIPTION: MTS assay, MCF7
Assay type: cell-based, human
SETUP_CONDITIONS: MCF7, 96 h, 1 nM E2; read-out: IC50, growth inhibition
pIC50: −log10 of the molar value.
ENDPOINT_LABEL: pIC50

# RECORD_SMILES, QUANTITATIVE_READOUT
rows = [
    ("CCOc1cc(Br)cc(/C=N/NC(=O)c2ccc3c(c2)OCCO3)c1O", 5.11),
]

###

EXPERIMENTAL_SYSTEM: oestrogen receptor-alpha (ERα) (Homo sapiens)
Sequence (P03372 1-595): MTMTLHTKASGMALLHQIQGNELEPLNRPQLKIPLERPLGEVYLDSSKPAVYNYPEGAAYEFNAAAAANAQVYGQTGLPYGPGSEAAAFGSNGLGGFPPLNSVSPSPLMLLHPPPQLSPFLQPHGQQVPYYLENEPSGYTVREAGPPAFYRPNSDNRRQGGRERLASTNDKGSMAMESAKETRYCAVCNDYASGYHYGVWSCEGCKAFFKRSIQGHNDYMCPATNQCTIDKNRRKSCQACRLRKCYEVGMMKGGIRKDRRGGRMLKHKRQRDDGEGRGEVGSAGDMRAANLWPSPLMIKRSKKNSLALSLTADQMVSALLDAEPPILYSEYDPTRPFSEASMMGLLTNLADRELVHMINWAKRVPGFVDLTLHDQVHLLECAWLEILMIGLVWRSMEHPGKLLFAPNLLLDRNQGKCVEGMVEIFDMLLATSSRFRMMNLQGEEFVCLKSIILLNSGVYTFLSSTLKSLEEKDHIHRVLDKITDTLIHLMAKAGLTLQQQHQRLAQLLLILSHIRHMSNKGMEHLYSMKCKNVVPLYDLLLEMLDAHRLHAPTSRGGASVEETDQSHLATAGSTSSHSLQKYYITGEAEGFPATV
PROTOCOL_DESCRIPTION: Luciferase oestrogen receptor-alpha transcriptional assay in T47D-KBluc cells
Type: cell-based
Parameters: endogenous in cells; host or cells: T47D-KBluc
SETUP_CONDITIONS: read-out: IC50, luciferase assay at varied E2; T47D-KBluc, E2 100 nM
ENDPOINT_LABEL: IC50 (µM)

# RECORD_SMILES, ENDPOINT_LABEL, QUANTITATIVE_READOUT
rows = [
    ("CCOc1cc(Br)cc(/C=N/NC(=O)c2ccc3c(c2)OCCO3)c1O", "IC50", 6.5),
]

###

EXPERIMENTAL_SYSTEM: oestrogen receptor-alpha (ERα) (Homo sapiens, UniProt P03372)
Sequence (P03372 1-595): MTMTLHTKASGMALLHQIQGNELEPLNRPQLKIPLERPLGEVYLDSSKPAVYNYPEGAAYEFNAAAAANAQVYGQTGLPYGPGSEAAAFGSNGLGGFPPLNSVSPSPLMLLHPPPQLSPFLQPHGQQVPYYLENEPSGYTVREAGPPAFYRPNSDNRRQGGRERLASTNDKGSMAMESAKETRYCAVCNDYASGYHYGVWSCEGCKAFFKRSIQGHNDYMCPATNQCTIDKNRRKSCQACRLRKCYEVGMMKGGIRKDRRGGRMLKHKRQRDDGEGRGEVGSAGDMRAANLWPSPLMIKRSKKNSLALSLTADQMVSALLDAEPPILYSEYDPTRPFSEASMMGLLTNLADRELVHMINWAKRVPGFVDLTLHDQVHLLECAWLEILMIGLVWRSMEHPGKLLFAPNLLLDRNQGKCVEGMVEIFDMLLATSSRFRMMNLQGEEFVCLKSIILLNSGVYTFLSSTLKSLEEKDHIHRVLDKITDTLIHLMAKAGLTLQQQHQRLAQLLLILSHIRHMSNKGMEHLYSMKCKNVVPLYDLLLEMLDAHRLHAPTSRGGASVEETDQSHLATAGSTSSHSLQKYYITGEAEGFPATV
PROTOCOL_DESCRIPTION: Transiently transfected E2-responsive luciferase reporter in TamR6 cells
Format: cell-based
Set-up: endogenous in cells
SETUP_CONDITIONS: TamR6, 1 nM E2; read-out: IC50, transcriptional inhibition of transiently transfected E2-responsive luciferase reporter
pIC50: −log10 of the molar value.
ENDPOINT_LABEL: pIC50

# RECORD_SMILES, ENDPOINT_LABEL, QUANTITATIVE_READOUT
records = [
    ("CCOc1cc(Br)cc(/C=N/NC(=O)c2ccc3c(c2)OCCO3)c1O", "pIC50", 5.33),
]

###

EXPERIMENTAL_SYSTEM: ERα AF2 site (GST-tagged ER-LBD) (Homo sapiens)
Construct: glutathione S-transferase (GST)-tagged ER-LBD (7.25 nM)
PROTOCOL_DESCRIPTION: TR-FRET ERα coactivator (PGC-1α peptide) displacement assay
SETUP_CONDITIONS: TR-FRET; read-out: IC50, displacement of PGC-1α peptide from the AF2 site
ENDPOINT_LABEL: IC50 (nM)

# RECORD_SMILES, QUANTITATIVE_READOUT
records = [
    ("CCOc1cc(Br)cc(/C=N/NC(=O)c2ccc3c(c2)OCCO3)c1O", 2980),
]
